- System: MRS 33591
- EXPERIMENT_DESCRIPTION: IC50, MIC and MBC against MRS 33591
- Type: cell-based, Staphylococcus aureus
- PARTICULARS: MRS 33591; tested Conc. in μg/mL
I'd appreciate it if you marked entries true (1) when MBC is lower than 4 and false (0) when it is not.

| COMPOUND | CLASS_NAME |
| --- | --- |
| CCCCCc1cc(O)c(CCC(C)CCCC(C)C)c(O)c1 (stereo not shown) [Tetrahydro CBG, Tetrahydrocannabigerol] | true (1) |
| C/C(=C\C(=O)OCCCCCCCCC(=O)O)C[C@@H]1OC[C@H](C[C@@H]2O[C@H]2[C@@H](C)[C@H](C)O)[C@@H](O)[C@H]1O [Mupirocin, reference compound] | true (1) |
| CC(C)=CCCC1(C)C=Cc2c(O)cc(C)cc2O1 (stereo not shown) [Cannabichromeorcin] | false (0) |
| CCCCCc1cc(O)c2c(c1)OC(C)(C)c1ccc(C)cc1-2 [CNB, Cannabinol] | false (0) |
| O=C(O)c1cn(C2CC2)c2cc(N3CCNCC3)c(F)cc2c1=O [Ciprofloxacin, reference compound] | true (1) |
| CCCCCc1cc(O)c(C/C=C(\C)CCC=C(C)C)c(O)c1 [CBG, Cannabigerol] | true (1) |
| CCCCCc1cc(O)c2c(c1)OC(C)(C)[C@@H]1CC=C(C)C[C@@H]21 [Δ8-Tetrahydrocannabinol] | false (0) |

###

Quick reference: IC50 of the listed items.
- System: MRS USA 400
- EXPERIMENT_DESCRIPTION: IC50, MIC and MBC against MRS USA 400
- Type: cell-based, Staphylococcus aureus
- PARTICULARS: MRS USA 400; tested Conc. in μg/mL
QUANTITY_NAME: IC50

| MOLECULE | QUANTITY_NAME | VALUE |
| --- | --- | --- |
| CC(C)=CCC/C(C)=C\Cc1c(O)cc(C)cc1O [(Z)-Cannabigerorcin] | IC50 | 7.27 |
| CC(C)=CCCC1(C)C=Cc2c(O)cc(C)cc2O1 (stereo not shown) [Cannabichromeorcin] | IC50 | 5.9 |
| CCCCCc1cc(O)c2c(c1)OC(C)(C)[C@@H]1CC=C(C)C[C@@H]21 [Δ8-Tetrahydrocannabinol] | IC50 | 2.55 |
| CCCCCc1cc(O)c2c(c1)OC(C)(C)c1cc(O)c(C)cc1-2 [8-Hydroxycannabinol] | IC50 | 1.82 |
| C=C(C)[C@@H]1CC[C@](C)(O)[C@H]2Oc3cc(CCCCC)cc(O)c3[C@@H]12 [Cannabielsoin] | IC50 | 6.03 |
| CCCCCc1cc(O)c(C/C=C(\C)CCC2OC2(C)C)c(O)c1 (stereo not shown) [6,7-Epoxycannabigerol] | IC50 | 8.67 |
| CCCCCc1cc(O)c(CCC(C)CCCC(C)C)c(O)c1 (stereo not shown) [Tetrahydro CBG, Tetrahydrocannabigerol] | IC50 | 1.12 |

###

- Test system: MRS 33591
- EXPERIMENT_DESCRIPTION: IC50, MIC and MBC against MRS 33591
- Format: cell-based, Staphylococcus aureus
- PARTICULARS: MRS 33591; tested Conc. in μg/mL
QUANTITY_NAME: MIC

| COMPOUND | QUANTITY_NAME | VALUE |
| --- | --- | --- |
| CCCCCc1cc(O)c(CCC(C)CCCC(C)C)c(O)c1 (stereo not shown) [Tetrahydro CBG, Tetrahydrocannabigerol] | MIC | 1.25 |
| CCCCCc1cc(O)c2c(c1)OC(C)(C)c1cc(O)c(C)cc1-2 [8-Hydroxycannabinol] | MIC | 5 |
| C=C(C)[C@@H]1CC[C@](C)(O)[C@H]2Oc3cc(CCCCC)cc(O)c3[C@@H]12 [Cannabielsoin] | MIC | 10 |
| CC(C)=CCCC1(C)C=Cc2c(O)cc(C)cc2O1 (stereo not shown) [Cannabichromeorcin] | MIC | 10 |
| CCCCCc1cc(O)c(C/C=C(\C)CCC2OC2(C)C)c(O)c1 (stereo not shown) [6,7-Epoxycannabigerol] | MIC | 13.33 |
| CCCCCc1cc(O)c2c(c1)OC(C)(C)[C@@H]1CC=C(C)C[C@@H]21 [Δ8-Tetrahydrocannabinol] | MIC | 2.5 |
| CC(C)=CCC/C(C)=C\Cc1c(O)cc(C)cc1O [(Z)-Cannabigerorcin] | MIC | 20 |

Hey, just so you know, these numbers are from patent US20210315837A1.
